molecular target: T1, human-CD40 monomer (human, UniProt P25942 21-193, limits assumed); experiment: SPR 2 pt screen, Ab on protein A
T1 construct: also called hCD40-monomer; human-CD40-monomer protein
T1 sequence (P25942 21-193 limits assumed): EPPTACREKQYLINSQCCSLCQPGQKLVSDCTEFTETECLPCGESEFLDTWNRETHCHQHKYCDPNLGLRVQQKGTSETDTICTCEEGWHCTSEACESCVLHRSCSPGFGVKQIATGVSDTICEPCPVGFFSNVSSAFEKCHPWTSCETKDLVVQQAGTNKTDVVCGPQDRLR
measured attribute: Kd (nM)
API: value field is a number in nM; no unit string.

Param item = humanized Y1238 hz29 (hz-HC6 / hz-LC4), IgG1.3f (antibody, V domains shown, IgG1.3f heavy constant, common CL; expression supernatant; also called Sup 29) VH: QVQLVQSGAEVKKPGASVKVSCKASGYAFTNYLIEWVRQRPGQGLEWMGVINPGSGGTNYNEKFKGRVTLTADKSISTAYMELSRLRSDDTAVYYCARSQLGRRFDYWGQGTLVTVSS VL: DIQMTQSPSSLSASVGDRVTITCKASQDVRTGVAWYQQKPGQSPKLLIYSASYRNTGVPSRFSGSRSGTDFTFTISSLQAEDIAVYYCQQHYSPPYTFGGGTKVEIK ; retrieve measured Kd.
6.5

// repeat for humanized Y1238 hz27 (hz-HC6 / hz-LC2), IgG1.3f (antibody, V domains shown, IgG1.3f heavy constant, common CL; expression supernatant; also called Sup 27) VH: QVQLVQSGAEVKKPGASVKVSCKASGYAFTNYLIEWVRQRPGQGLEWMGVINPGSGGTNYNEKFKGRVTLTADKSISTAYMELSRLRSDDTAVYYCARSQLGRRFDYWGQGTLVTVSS VL: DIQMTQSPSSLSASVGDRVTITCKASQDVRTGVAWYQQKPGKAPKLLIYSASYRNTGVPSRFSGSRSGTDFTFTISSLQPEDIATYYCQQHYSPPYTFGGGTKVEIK and report
3.3

Also humanized Y1238 hz38 (hz-HC8 / hz-LC3), IgG1.3f (antibody, V domains shown, IgG1.3f heavy constant, common CL; expression supernatant; also called Sup 38) VH: QVQLVQSGAEVVKPGASVKVSCKASGYAFTNYLIEWVRQRPGQGLEWMGVINPGSGGTNYNEKFKGRVTLTADKSSSTAYMQLSRLRSDDTAVYFCARSQLGRRFDYWGQGTLVTVSS VL: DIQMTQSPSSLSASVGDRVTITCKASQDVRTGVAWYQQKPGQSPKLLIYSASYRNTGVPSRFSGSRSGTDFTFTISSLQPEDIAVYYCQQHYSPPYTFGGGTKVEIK , if possible.
8.2

Entry to check: humanized Y1238 hz39 (hz-HC8 / hz-LC4), IgG1.3f (antibody, V domains shown, IgG1.3f heavy constant, common CL; expression supernatant; also called Sup 39) VH: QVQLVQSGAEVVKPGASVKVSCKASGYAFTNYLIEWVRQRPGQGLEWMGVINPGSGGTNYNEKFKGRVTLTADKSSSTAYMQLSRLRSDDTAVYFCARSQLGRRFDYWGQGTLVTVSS VL: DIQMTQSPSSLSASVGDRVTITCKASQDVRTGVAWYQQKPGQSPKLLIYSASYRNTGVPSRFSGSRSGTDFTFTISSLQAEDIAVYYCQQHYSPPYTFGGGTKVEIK
7.5

Consider next the binder humanized Y1238 hz41 (hz-HC9 / hz-LC1), IgG1.3f (antibody, V domains shown, IgG1.3f heavy constant, common CL; expression supernatant; also called Sup 41) VH: QVQLVQSGAEVVKPGASVKVSCKASGYAFTNYLIEWVRQRPGQGLEWMGVINPGSGGTNYNEKFKGRVTLTADKSSSTAYMQLSRLRSDDTAVYFCARSQLGRRFDYWGQGTTVTVSS VL: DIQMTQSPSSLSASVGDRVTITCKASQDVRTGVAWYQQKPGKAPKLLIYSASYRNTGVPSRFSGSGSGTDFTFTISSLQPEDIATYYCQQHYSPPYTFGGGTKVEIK in the same way.
4.4
